Hello, the source for this data is patent US20260042764A1, in case you need it.

biological target: Avi-KRAS G12C (2-169) GTP/RAF1 RBD-3xFLAG (51-131) (Homo sapiens, UniProt P01116, G12C); construct: Avi-KRAS G12C (2-169); experiment: Raf1-KRAS G12C-GTP disruption HTRF assay (Biological Example 3); format: binding; settings: KRAS G12C, GTP-loaded
Sequence (P01116 2-169 isoform P01116-2 G12C): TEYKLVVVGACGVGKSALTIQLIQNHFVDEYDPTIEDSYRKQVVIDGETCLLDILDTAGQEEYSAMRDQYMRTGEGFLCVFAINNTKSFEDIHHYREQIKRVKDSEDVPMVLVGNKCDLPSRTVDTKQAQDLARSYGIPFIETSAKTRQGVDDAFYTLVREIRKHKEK
Observation Type: IC50

1) CCN(c1nc(OC[C@@]23CCCN2C[C@H](F)C3)nc2c(F)c(-c3ccc(F)c4sc(N)c(C#N)c34)c(C(F)(F)F)cc12)[C@@H]1CC[C@H](C(=O)N(C)C)C1 [Compound 959] :: 1000 to 10000 nM
2) CCN(c1nc(OC[C@@]23CCCN2C[C@H](F)C3)nc2c(F)c(-c3ccc(F)c4sc(N)c(C#N)c34)c(C(F)(F)F)cc12)[C@H]1C[C@H]2[C@@H](C)N(C)C(=O)N2C1 (atropisomer, axis not shown) [Compound 910] :: 100 to 1000 nM
3) CCN(c1nc(OC[C@@]23CCCN2C[C@H](F)C3)nc2c(F)c(-c3ccc(F)c4sc(N)c(C#N)c34)c(C(F)(F)F)cc12)[C@H]1CCN(C(=O)OCC(F)(F)F)C1 (atropisomer, axis not shown) [Compound 849] :: 100 to 1000 nM
4) CCN(c1nc(OC[C@@]23CCCN2C[C@H](F)C3)nc2c(F)c(-c3ccc(F)c4sc(N)c(C#N)c34)c(C(F)(F)F)cc12)[C@H]1C[C@H]2CCC(=O)N2C1 (atropisomer, axis not shown; (aR)) [Compound 573] :: ≤ 100 nM
5) CCC(=O)N1CC[C@@H](N(C)c2nc(OC[C@@]34CCCN3C[C@H](F)C4)nc3c(F)c(-c4ccc(F)c5sc(N)c(C#N)c45)c(C(F)(F)F)cc23)[C@H]1C (atropisomer, axis not shown) [Compound 335] :: 100 to 1000 nM
6) CCN(c1nc(OC[C@@]23CCCN2C[C@H](F)C3)nc2c(F)c(-c3ccc(F)c4sc(N)c(C#N)c34)c(C(F)(F)F)cc12)[C@H]1C[C@H](COC)N(C(=O)C2C[C@@H]2F)C1 (some centres unmarked) [Compound 870] :: 100 to 1000 nM
7) CCN(c1nc(OC[C@@]23CCCN2C[C@H](F)C3)nc2c(F)c(-c3ccc(F)c4sc(N)c(C#N)c34)c(C(F)(F)F)cc12)[C@H]1C[C@H]2CN(C3COC3)C(=O)N2C1 (atropisomer, axis not shown) [Compound 958] :: 100 to 1000 nM
8) CCN(c1nc(OC[C@@]23CCCN2C[C@H](F)C3)nc2c(F)c(-c3ccc(F)c4sc(N)c(C#N)c34)c(C(F)(F)F)cc12)[C@@H]1C[C@H](C)N(C(C)=O)C1 (atropisomer, axis not shown) [Compound 534] :: 100 to 1000 nM
9) [2H][C@]1(N(CC)c2nc(OC[C@@]34CCCN3C[C@H](F)C4)nc3c(F)c(-c4ccc(F)c5sc(N)c(C#N)c45)c(C(F)(F)F)cc23)CCN(C(=O)N(C)C)C1 (atropisomer, axis not shown) [Compound 859] :: 100 to 1000 nM
10) N#Cc1c(N)sc2c(F)ccc(-c3c(C(F)(F)F)cc4c(N(C5CC5)[C@H]5CCS(=O)(=O)C5)nc(OC[C@@]56CCCN5C[C@H](F)C6)nc4c3F)c12 [Compound 702] :: > 10000 nM
11) CCN(c1nc(OC[C@@]23CCCN2C[C@H](F)C3)nc2c(F)c(-c3ccc(F)c4sc(N)c(C#N)c34)c(C(F)(F)F)cc12)[C@H]1C[C@@H](C)N(C(=O)OC2CC(OC)C2)C1 (some centres unmarked) [Compound 895] :: 100 to 1000 nM
12) CCN(c1nc(OC[C@@]23CCCN2C[C@H](F)C3)nc2c(F)c(-c3ccc(F)c4sc(N)c(C#N)c34)c(C(F)(F)F)cc12)[C@H]1CCN(C(=O)OC2CCOCC2)[C@@H]1C (atropisomer, axis not shown) [Compound 825] :: 100 to 1000 nM
13) CCN(c1nc(OC[C@@]23CCCN2C[C@H](F)C3)nc2c(F)c(-c3ccc(F)c4sc(N)c(C#N)c34)c(C(F)(F)F)cc12)[C@H]1CCN(C(=O)c2cccs2)C1 (atropisomer, axis not shown) [Compound 920] :: 100 to 1000 nM
14) CCN(c1nc(OC[C@@]23CCCN2C[C@H](F)C3)nc2c(F)c(-c3ccc(F)c4sc(N)c(C#N)c34)c(C(F)(F)F)cc12)[C@H]1CCN(C(=O)N(C)C)[C@@H]1C (atropisomer, axis not shown) [Compound 749] :: ≤ 100 nM
15) CCN(c1nc(OC[C@@]23CCCN2C[C@H](F)C3)nc2c(F)c(-c3ccc(F)c4sc(N)c(C#N)c34)c(C(F)(F)F)cc12)[C@H]1CCN(C(=O)OC)C1 (atropisomer, axis not shown) [Compound 541] :: ≤ 100 nM
16) CN(Cc1ccnnc1)c1nc(OC[C@@]23CCCN2C[C@H](F)C3)nc2c(F)c(-c3ccc(F)c4sc(N)c(C#N)c34)c(C(F)(F)F)cc12 (atropisomer, axis not shown) [Compound 896] :: 1000 to 10000 nM
17) CC(=O)N1CC[C@H](N(c2nc(OC[C@@]34CCCN3C[C@H](F)C4)nc3c(F)c(-c4ccc(F)c5sc(N)c(C#N)c45)c(C(F)(F)F)cc23)C2CC2)C1 (atropisomer, axis not shown) [Compound 608] :: 100 to 1000 nM
